- System: EKVX NSCLC
- PROTOCOL_DESCRIPTION: NCI-60 one-dose screen, 48 h (100 = growth as untreated, 0 = no growth, -100 = all killed)
- MEASUREMENT_PARAMETERS: 10 µM unless noted
The panel holds about 83,000 compounds, 20% with a hit somewhere; the sample as a whole holds those more often.
OBSERVED_PROPERTY: growth (%)
Give the quantity in %, number only.

Examples from the recorded data:
O=C(O)c1ccc(-n2cc(/C=N/Nc3ccccc3)c(-c3ccc(F)cc3F)n2)cc1 :: 55.2
N#C/C(=C\c1c(-c2ccccc2)[nH]c2ccccc12)C(N)=O :: 83.7
CC(=O)N1N=C(c2ccc(Nc3nc(Nc4ccccc4)nc(Nc4ccccc4)n3)cc2)CC1c1cccc([N+](=O)[O-])c1 (centres undefined) :: 77.3
O=C(CN1CCCCC1)Nc1nc(-c2cc3ccccc3oc2=O)cs1 :: 96.1

Then this compound:
Form: Entry = CC1CN(S(=O)(=O)c2oc(-c3ccc(Cl)cc3)nc2C#N)CC(C)O1 (centres undefined) | System = EKVX NSCLC | growth = ____
101

----------
growth: recorded values
- Test system: A549/ATCC NSCLC
- PROTOCOL_DESCRIPTION: NCI-60 one-dose screen, 48 h (100 = growth as untreated, 0 = no growth, -100 = all killed)
- MEASUREMENT_PARAMETERS: 10 µM unless noted
About 83,000 compounds went through this panel and 20% of them were active in at least one assay; those are over-represented in the sample as a whole. The source made the active and inactive calls. How the source made its calls: active means growth percent below 10; inactive means the rest.

O=C(/C=C/c1cn(-c2ccccc2)nc1-c1ccc(Cl)cc1)c1ccc(F)cc1 :: 79.7% (inactive)
C1CN(SSN2CCOCC2)CCO1 :: 35.7% [100 µM] (inactive)
COc1ccc(NC2=C(I)C(=O)c3ncccc3C2=O)cc1 :: 0.0675% (active)

Need growth, item COc1cc(/C=C/C(=O)c2ccc(F)cc2)ccc1OCCCCOc1ccc(/C=C/C(=O)c2c(C)nc3ccccc3c2C)cc1OC
76.9% (inactive)

What about this compound? CCCCNC(=O)Oc1ccc(/C(=C(/C)Cc2ccc(OC)cc2)c2ccc(OCCN3CCCC3)cc2)cc1
48.7% (inactive)

What about this compound? CC(C)(C)[Si](C)(C)OC1[C@@H](CNC(=O)NC(=O)NC(N)=O)O[C@@H](n2cnc3c(NC(=O)Nc4ccccc4)ncnc32)[C@H]1O[Si](C)(C)C(C)(C)C (stereo not given in full)
44.1% (inactive)

What about this compound? O=C(O)c1ccc(-n2cc(/C=N/Nc3ccccc3)c(-c3ccc(F)cc3F)n2)cc1
60% (inactive)

What about this compound? N#CC1=C(N)Oc2c(c(=O)[nH]c3ccc(Cl)cc23)C12C(=O)c1ccccc1C2=O
93.6% (inactive)

----------
- Test system: NCI-H226 lung
- PROTOCOL_DESCRIPTION: NCI-60 one-dose screen, 48 h (100 = growth as untreated, 0 = no growth, -100 = all killed)
- MEASUREMENT_PARAMETERS: 10 µM unless noted
The panel holds about 83,000 compounds, 20% with a hit somewhere; the sample as a whole holds those more often.
Each record is given 1 if its reported growth is strictly below 60%. Records at or above 60% are given 0.

Solved cases (2 shown):
Clc1cccc(Nc2ncnc3ccc(-c4cnc5[nH]ccc5c4)cc23)c1 :: 0
N#CSCC1CC(O)(c2ccccc2)CC(c2ccc(F)cc2)O1 (stereo not given) :: 1

Is 60% strictly greater than the compound's reported growth? compound: COc1cc2c(c(OC)c1OC)CCC(c1cccc(C(=O)Nc3ccc(C#N)cc3)c1)O2 (stereo not given)
1

What about this compound? CC(=O)n1nc(C(=O)OC(C)(C)c2ccccc2)c2ccccc21
0

What about this compound? N#Cc1ccc(O)c(C2=NCC(c3cccc(Oc4ccccc4)c3)O2)c1 (stereo not given)
1

----------
growth: recorded values
- Tested on: OVCAR-4 ovarian
- PROTOCOL_DESCRIPTION: NCI-60 one-dose screen, 48 h (100 = growth as untreated, 0 = no growth, -100 = all killed)
- MEASUREMENT_PARAMETERS: 10 µM unless noted
This is part of a sample that, as a whole, favours compounds with a hit. Of some 83,000 tested, about 20% had one in any assay. Activity calls are given as the source filed them. The calls were made as follows: active = growth percent below 10; inactive = the rest.

Examples from the recorded data:
Cc1nc2sc(C(=O)Nc3cccc4ccccc34)c(N)c2cc1C(O)c1ccccc1 (stereo not given) :: 60% (inactive)
CCOC(=O)c1c(C(=O)c2cn(C)c3ccc(Br)cc23)c(-c2cn(C)c3ccc(Br)cc23)n(NC(=O)OC(C)(C)C)c1C :: 105% [100 µM] (inactive)
Cc1ccc2c(c1)=C/C(=C\c1cc(-c3ccccc3)oc1O)C(=O)N=2 :: 105% (inactive)
CCN(CC)CCCCCNc1cc(OC(=O)c2ccc(Cl)cc2)cc2cccnc12 :: 39.9% (inactive)

Then this compound:
Form: Entry = Cn1c(I)c(C#CCO[Si](C)(C)C(C)(C)C)c(=O)[nH]c1=O | System = OVCAR-4 ovarian | growth = ____
80% (inactive)

----------
- Test system: HCC-2998 colon
- PROTOCOL_DESCRIPTION: NCI-60 one-dose screen, 48 h (100 = growth as untreated, 0 = no growth, -100 = all killed)
- MEASUREMENT_PARAMETERS: 10 µM unless noted
About 83,000 compounds went through this panel and 20% of them were active in at least one assay; those are over-represented in the sample as a whole. The source made the active and inactive calls. How the source made its calls: active means growth percent below 10; inactive means the rest.
growth: recorded values

Examples from the recorded data:
O=C1NC2(Nc3ccccc31)C(=O)Nc1c(Cl)cc(Cl)cc12 (stereo not given) :: 104% (inactive)
CSc1nc2ccccc2cc1/C=C1/C=C(c2ccccc2)NC1=O :: 93.2% (inactive)
O=C(Nc1ccc(OS(=O)(=O)c2ccc(F)cc2)cc1)C1CCCCCC1 :: 78.9% (inactive)
Cn1cc(C(=O)c2nc(-c3c[nH]c4ccccc34)no2)c2cc(F)ccc21 :: 73.9% (inactive)

Then this compound:
Need growth, item CC(C)(Sc1cc(C(C)(C)C)c(OC(=O)CCCC(=O)O)c(C(C)(C)C)c1)Sc1cc(C(C)(C)C)c(OC(=O)CCCC(=O)O)c(C(C)(C)C)c1
22.1% (inactive)

----------
- Test system: 786-0 renal
- PROTOCOL_DESCRIPTION: NCI-60 one-dose screen, 48 h
- MEASUREMENT_PARAMETERS: 10 µM unless noted
Compounds without any hit were thinned out: in the full panel of roughly 83,000, 20% have a hit. The source made the active and inactive calls. Rule for the calls: active = growth percent below 10; inactive = the rest.
Assign a class; possible classes are True for active, False for inactive

Solved cases (8 shown):
COc1cc2ncnc(Nc3ccc(S(=O)(=O)Nc4cc(C)on4)cc3)c2cc1OCCCN1CCN(c2ccc(F)cc2)CC1 :: False
Nc1nc(-c2ccc(Cl)cc2)nc2c1sc(=S)n2-c1ccccc1 :: True
COc1ccc(OC)c(Nc2nnc(-c3ccc(O)c(OC)c3)o2)c1 :: False
O=C1C(Cl)=C(NCCCCCCNC2=C(Cl)C(=O)c3ccccc3C2=O)C(=O)c2ccccc21 :: False
Cc1cn(-c2cc(NC(=O)c3cncc(C#Cc4cnc(N)c5ncccc45)c3)cc(C(F)(F)F)c2)cn1 :: False
C=CC[Se]C(=O)Cc1c(C)n(C(=O)c2ccc(Cl)cc2)c2ccc(OC)cc12 :: True
O=C(/C=C/c1cn(-c2ccccc2)nc1-c1ccc(Cl)cc1)c1ccc(F)cc1 :: False
Nc1ncnc2c1C(c1ccc(Br)cc1)c1sc3c(F)cccc3c1O2 (centres undefined) :: False

Could you now look at the following compound, please?
Can you look up the reported call for COc1ccc(/C=C/C(=O)c2cc3c(N)c(C(=O)Nc4cccc5ccccc45)sc3nc2C)cc1 for me?
False

----------
- System: SF-268 CNS
- PROTOCOL_DESCRIPTION: NCI-60 one-dose screen, 48 h
- MEASUREMENT_PARAMETERS: 10 µM unless noted
- Protocol: Cells are grown in 96 well plates and exposed to the test compound for 48 hours. Compounds are tested at a single concentration, which is 10^-5 M for most compounds. The reported endpoint is percent growth (GI% or GIPRCNT), where numbers from 0 - 100% represent growth inhibition, and numbers from -100% - 0 represent cell death. For example, a value of 40 represents 60% growth inhibition. A value of 0 means no net growth occurred over the course of the experiment. […]
The panel holds about 83,000 compounds, 20% with a hit somewhere; the sample as a whole holds those more often. Active and inactive are the calls of the source. Rule for the calls: active = growth percent below 10; inactive = the rest.
Assign a class; possible classes are Yes = active, No = inactive

Solved cases (6 shown):
Cn1c(=O)c2nc(/C=C/c3ccccc3)c(=O)[nH]c2n(C)c1=S :: No
COC1/C=C/OC2(C)Oc3c(C)c(O)c4c(O)c(c(/C=N/Nc5ccc([N+](=O)[O-])cc5[N+](=O)[O-])c(O)c4c3C2=O)NC(=O)C(C)=C/C=C/C(C)C(O)C(C)C(O)C(C)C(OC(C)=O)C1C (centres undefined) :: No
Cn1ccnc1C(=O)/C=C/c1ccc(C(=O)Nc2ccc(Cl)cc2)cc1 :: Yes
Clc1ccc(/C=N\N=C\c2ccc(Cl)c(Cl)c2)cc1Cl :: No
C=C1C(=O)O[C@H]2[C@H]1CC/C(Cn1cc(-c3ccccc3)nn1)=C\CC[C@@]1(C)O[C@@H]21 :: No
COc1cc(C2c3cc(OC(C)=O)c(OC)cc3CC3C(=O)OCC32)ccc1OC(C)=O (centres undefined) :: No

Can you look up the reported call for O=S(=O)(Nc1ccc(F)cc1F)c1ccc(-c2cnc(C3CC3)o2)cc1 for me?
No

What about this molecule? CCN(CC)CC(O)COc1c(Br)c(Br)c(Br)c2c1OC(C)(C)C2 (centres undefined)
No

What about this molecule? C[C@@H](CO)[C@@H]1CCC=C2CC[C@]3(C)[C@H](CC[C@@H]4[C@@]5(C)CCCNC(C)(C)[C@@H]5CC[C@]43C)[C@H]21
No

Provenance of the data: PubChem BioAssay (NCI)
